assayed_system: human apo-transferrin (Homo sapiens, UniProt P02787)
Sequence (P02787 20-698): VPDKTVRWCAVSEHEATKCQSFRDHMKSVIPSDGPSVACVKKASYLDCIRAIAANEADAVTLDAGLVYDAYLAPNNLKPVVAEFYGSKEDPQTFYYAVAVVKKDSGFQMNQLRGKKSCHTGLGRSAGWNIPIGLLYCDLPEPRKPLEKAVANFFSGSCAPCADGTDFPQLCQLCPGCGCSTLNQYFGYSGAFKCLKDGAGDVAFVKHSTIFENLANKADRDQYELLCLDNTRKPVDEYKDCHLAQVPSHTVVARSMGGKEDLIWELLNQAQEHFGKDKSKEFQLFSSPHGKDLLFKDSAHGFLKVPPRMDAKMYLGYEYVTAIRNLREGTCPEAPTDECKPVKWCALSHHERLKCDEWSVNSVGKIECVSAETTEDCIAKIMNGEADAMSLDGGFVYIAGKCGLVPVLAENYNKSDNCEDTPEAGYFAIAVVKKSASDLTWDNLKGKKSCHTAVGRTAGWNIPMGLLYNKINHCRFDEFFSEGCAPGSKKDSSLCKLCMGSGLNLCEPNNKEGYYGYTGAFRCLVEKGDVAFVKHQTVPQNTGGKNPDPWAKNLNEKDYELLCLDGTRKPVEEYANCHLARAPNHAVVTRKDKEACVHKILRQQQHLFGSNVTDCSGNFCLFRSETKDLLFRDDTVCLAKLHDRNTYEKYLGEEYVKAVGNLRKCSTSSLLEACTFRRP
measurement_protocol: ^111In-chelate stability: binding competition with human apo-transferrin at ambient temperature, PD-10 columns
Type: in vitro ADME
Design: Human serum apo-transferrin was purchased from Sigma-Aldrich; purchased Sigma-Aldrich; host or cells: human serum
condition_label: 24 hours
reported_endpoint: % ^111In-chelate stability, 24 hour stability (%)

{"molecule": "O=C([O-])CN1CCN(CC(=O)[O-])CCN(CC(=O)[O-])CCN(CC(=O)[O-])CC1.[111In+3] [^111In(DOTA), reference compound]", "units_text": "%", "recorded_result": 81}
{"molecule": "O=C(O)CN(CCN(CC(=O)O)Cc1cccc(C(=O)O)n1)Cc1cccc(C(=O)O)n1 [^111In(2), metal not drawn]", "units_text": "%", "recorded_result": 91}
{"molecule": "O=C(O)CN(CCCN(CC(=O)O)Cc1cccc(C(=O)O)n1)Cc1cccc(C(=O)O)n1 [^111In(4), metal not drawn]", "units_text": "%", "recorded_result": 91}
{"molecule": "O=C(O)c1cccc(CNCCNCc2cccc(C(=O)O)n2)n1 [^111In(1), metal not drawn]", "units_text": "%", "recorded_result": 43}
{"molecule": "O=C(O)c1cccc(CNCCCNCc2cccc(C(=O)O)n2)n1 [^111In(3), metal not drawn]", "units_text": "%", "recorded_result": 85}
{"molecule": "O=C(O)c1cccc(CNCCN(CCNCc2cccc(C(=O)O)n2)Cc2cccc(C(=O)O)n2)n1 [^111In(5), metal not drawn]", "units_text": "%", "recorded_result": 88}
{"molecule": "O=C([O-])CN(CCN(CC(=O)[O-])CC(=O)[O-])CCN(CC(=O)[O-])CC(=O)[O-].[111In+3] [^111In(DTPA), reference compound]", "units_text": "%", "recorded_result": 88}
{"molecule": "O=C(O)CN(CCN(CC(=O)O)Cc1cccc(C(=O)O)n1)CCN(CC(=O)O)Cc1cccc(C(=O)O)n1 [^111In(6), metal not drawn]", "units_text": "%", "recorded_result": 91}

* * *

assayed_system: human apo-transferrin (Homo sapiens)
measurement_protocol: ^67Ga complex stability: 2-h competition with excess human apo-transferrin, HPLC
condition_label: ^67Ga complex, 37° C, 1 h
reported_endpoint: Stability in competition with excess human apo-transferrin, 1 h (%)

[P] COc1cc(CN(CCN(Cc2cc(OC)cc(OC)c2)Cc2cccc(C(=O)[O-])n2)Cc2cccc(C(=O)[O-])n2)cc(OC)c1.O=[N+]([O-])[O-].[Ga+3]
[Q] COc1cc(CN(CCN(Cc2cc(OC)cc(C(=O)[O-])n2)Cc2c(OC)cc(OC)cc2OC)Cc2c(OC)cc(OC)cc2OC)nc(C(=O)[O-])c1.O=[N+]([O-])[O-].[Ga+3] [Ga(91b)NO3]
From the recorded data, which exceeds the other in Stability in competition with excess human apo-transferrin, 1 h: P or Q ? Identify your selection by its label.
Q

* * *

assayed_system: human apo-transferrin (Homo sapiens, UniProt P02787)
measurement_protocol: ^111In-chelate stability: binding competition with human apo-transferrin at ambient temperature, PD-10 columns
Format: in vitro ADME
Set-up: Human serum apo-transferrin was purchased from Sigma-Aldrich; purchased Sigma-Aldrich; host or cells: human serum
condition_label: 1 hour
reported_endpoint: % ^111In-chelate stability at 1 hour (%)

{"compound": "O=C(O)c1cccc(CNCCNCc2cccc(C(=O)O)n2)n1 [^111In(1), metal not drawn]", "% ^111In-chelate stability at 1 hour, %": 98}
{"compound": "O=C(O)c1cccc(CNCCCNCc2cccc(C(=O)O)n2)n1 [^111In(3), metal not drawn]", "% ^111In-chelate stability at 1 hour, %": 91}
{"compound": "O=C(O)CN(CCCN(CC(=O)O)Cc1cccc(C(=O)O)n1)Cc1cccc(C(=O)O)n1 [^111In(4), metal not drawn]", "% ^111In-chelate stability at 1 hour, %": 93}
{"compound": "O=C(O)CN(CCN(CC(=O)O)Cc1cccc(C(=O)O)n1)Cc1cccc(C(=O)O)n1 [^111In(2), metal not drawn]", "% ^111In-chelate stability at 1 hour, %": 90}
{"compound": "O=C(O)CN(CCN(CC(=O)O)Cc1cccc(C(=O)O)n1)CCN(CC(=O)O)Cc1cccc(C(=O)O)n1 [^111In(6), metal not drawn]", "% ^111In-chelate stability at 1 hour, %": 89}
{"compound": "O=C([O-])CN(CCN(CC(=O)[O-])CC(=O)[O-])CCN(CC(=O)[O-])CC(=O)[O-].[111In+3] [^111In(DTPA), reference compound]", "% ^111In-chelate stability at 1 hour, %": 86}

* * *

assayed_system: human apo-transferrin (Homo sapiens, UniProt P02787)
measurement_protocol: ^67Ga complex stability: 2-h competition with excess human apo-transferrin, HPLC
condition_label: ^67Ga complex, 37° C, 2 h
reported_endpoint: Stability in competition with excess human apo-transferrin, 2 h (%)

[P] CCOc1cc(OCC)c(CN(CCN(Cc2cccc(C(=O)[O-])n2)Cc2c(OCC)cc(OCC)cc2OCC)Cc2cccc(C(=O)[O-])n2)c(OCC)c1.O=[N+]([O-])[O-].[Ga+3] [Ga(99a)NO3]
[Q] COc1cc(CN(CCN(Cc2cc(OC)cc(OC)c2)Cc2cccc(C(=O)[O-])n2)Cc2cccc(C(=O)[O-])n2)cc(OC)c1.O=[N+]([O-])[O-].[Ga+3]
Which entry shows the lesser value of Stability in competition with excess human apo-transferrin, 2 h here, P or Q ? Identify your selection by its label.
Q

* * *

assayed_system: human apo-transferrin (Homo sapiens)
measurement_protocol: ^67Ga complex stability: 2-h competition with excess human apo-transferrin, HPLC
condition_label: ^67Ga complex, 37° C, 1 h
reported_endpoint: Stability in competition with excess human apo-transferrin, 1 h (%)

{"compound": "CCOc1cc(OCC)c(CN(CCN(Cc2cc(OC)cc(C(=O)[O-])n2)Cc2c(OCC)cc(OCC)cc2OCC)Cc2cc(OC)cc(C(=O)[O-])n2)c(OCC)c1.O=[N+]([O-])[O-].[Ga+3] [Ga(99b)NO3]", "recorded_result": 93}
{"compound": "COc1cc(OC)c(CN(CCN(Cc2cccc(C(=O)[O-])n2)Cc2c(OC)cc(OC)cc2OC)Cc2cccc(C(=O)[O-])n2)c(OC)c1.O=[N+]([O-])[O-].[Ga+3] [Ga(91a)NO3]", "recorded_result": 85}
{"compound": "CCOc1cc(OCC)c(CN(CCN(Cc2cccc(C(=O)[O-])n2)Cc2c(OCC)cc(OCC)cc2OCC)Cc2cccc(C(=O)[O-])n2)c(OCC)c1.O=[N+]([O-])[O-].[Ga+3] [Ga(99a)NO3]", "recorded_result": 92}

* * *

assayed_system: human apo-transferrin (Homo sapiens, UniProt P02787)
measurement_protocol: ^67Ga complex stability: 2-h competition with excess human apo-transferrin, HPLC
condition_label: ^67Ga complex, 37° C, 2 h
reported_endpoint: Stability in competition with excess human apo-transferrin, 2 h (%)

{"molecule": "COc1cc(CN(CCN(Cc2cc(OC)cc(C(=O)[O-])n2)Cc2c(OC)cc(OC)cc2OC)Cc2c(OC)cc(OC)cc2OC)nc(C(=O)[O-])c1.O=[N+]([O-])[O-].[Ga+3] [Ga(91b)NO3]", "recorded_result": 96}
{"molecule": "CCOc1cc(OCC)c(CN(CCN(Cc2cc(OC)cc(C(=O)[O-])n2)Cc2c(OCC)cc(OCC)cc2OCC)Cc2cc(OC)cc(C(=O)[O-])n2)c(OCC)c1.O=[N+]([O-])[O-].[Ga+3] [Ga(99b)NO3]", "recorded_result": 93}
{"molecule": "COc1cc(OC)c(CN(CCN(Cc2cccc(C(=O)[O-])n2)Cc2c(OC)cc(OC)cc2OC)Cc2cccc(C(=O)[O-])n2)c(OC)c1.O=[N+]([O-])[O-].[Ga+3] [Ga(91a)NO3]", "recorded_result": 82}
